Target: T1, human ASGR-1 mutant construct H203 (human, UniProt P07306 1-291)
T1 construct: Arg/Glu scanning: non-arginine residues were changed to arginine; Transiently expressed on CHO-S cells
T1 sequence: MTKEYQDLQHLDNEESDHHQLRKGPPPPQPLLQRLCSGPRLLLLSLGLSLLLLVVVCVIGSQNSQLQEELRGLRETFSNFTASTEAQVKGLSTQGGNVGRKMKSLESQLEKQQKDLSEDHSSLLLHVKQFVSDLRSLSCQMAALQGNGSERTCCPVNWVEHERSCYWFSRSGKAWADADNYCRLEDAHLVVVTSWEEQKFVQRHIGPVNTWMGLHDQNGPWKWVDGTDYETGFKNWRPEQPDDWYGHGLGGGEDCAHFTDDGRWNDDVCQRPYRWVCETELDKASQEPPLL
Assay: FACS, transfected CHO-S cells, mAb 5 ug/ml
metric-name: FACS Binding Geomean
# respond with the number and nothing more

Recorded results for 2 binders are shown here.
- binder: "4A2 (antibody, V domains shown, mAb) VH: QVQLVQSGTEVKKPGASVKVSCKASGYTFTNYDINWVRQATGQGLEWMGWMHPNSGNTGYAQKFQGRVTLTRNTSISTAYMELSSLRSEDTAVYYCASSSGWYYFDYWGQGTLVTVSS VL: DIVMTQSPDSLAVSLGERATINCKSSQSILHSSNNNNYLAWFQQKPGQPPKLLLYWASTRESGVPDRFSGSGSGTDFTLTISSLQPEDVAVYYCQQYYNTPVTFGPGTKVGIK"
  FACS Binding Geomean: 18900
- binder: "173C11 (antibody, V domains shown, mAb) VH: QVQLVESGGGVVQPGRSLRLSCAASGFTFSSYGIHWVRQAPGKGLEWVALIFYDGSNKYYADSVKGRFTISRDNSKNTLYLHMSSLRAEDTAVYYCARRYSSSWSGGMDVWGQGTTVTVSS VL: DIVMTQTPLSLSVTPGQPASISCKSSQSLLHSEGKTYLYWYLQKPGQPPQLLIYEVSHRFSGVPDRFSGSGSGTDFTLKISRVEAEDVGVYYCMQSIQLLTFGGGTKVEIK"
  FACS Binding Geomean: 13900

For reference, reported FACS Binding Geomean for 60E8 (antibody, V domains shown, mAb) VH: QVQLQESGPGLVRPSATLSLTCTVSGGSISRSSYYWGWIRQPPGKGLEWIGSIYYSGSASYNPSLKSRVTISVDTSENQFSLRLSSVTAADTAVYYCARLDSGWSFDYWGQGTLVTVSS VL: DIQMTQSPSSLSASVGDRVTFTCRASQGIRNDLGWFQQKPGKAPKRLIYAASSLQSGVPSRFSGSGSGTEFTLTISSLQPEDFATYYCLQHSSYPLTFGGGTKVEIK stands at 1520

For reference, reported FACS Binding Geomean for 147E9 (antibody, V domains shown, mAb) VH: EVQLVESGGGLVQPGGSLRLSCAASGFTFSSYSMNWVRQAPGKGLEWVSSISGRNTTIYYADSVKGRFTISRDNAKNSLYLQMNSLRDEDTAVYYCSRDRGSCWGQGTLVTVSS VL: DIQMTQSPSSLSASVGDRVTITCRASQDINNYLAWFQQKPGKAPKSLIVAASSLQSGVPSKFSGSGSGTDFTLTISSLQPEDFATYYCQQYNSYPLTFGGGTKVEIK stands at 21500

For reference, reported FACS Binding Geomean for 85F7 (antibody, V domains shown, mAb) VH: QVQLQQWGAGLLKPSEPLSLTCAVYGGSFSGPYWSWIRQPPGKGLEWIGEINHSGSTNYNPSLKSRVTISVDTSKNQFSLKLTSVTAADTAVYYCARDYGGLDVWGQGTTVTVSS VL: EPVLTQSPGTLSLSPGERATLSCRASQNIYSNYLAWYQQKPGQAPRLLIYGASSRATGIPDRFSGSGSGTDFTLTISRLEPEDFAVYCCQQYESSPWTFGQGTKVEIK stands at 16500
